// data source = patent US7053070B2

// reported melting point per item

| substance smiles | endpoint name | reading |
| --- | --- | --- |
| O=C(NCCO)Nc1ccc2cnc(Nc3ccc(F)cc3)nc2n1 | melting point | 238 to 240 °C |
| Cc1cc(Nc2ncc3ccc(NC(=O)Nc4ccc(Cl)cc4)nc3n2)ccc1F | melting point | > 250 °C |
| Cc1c(F)c(NC(=O)NC(C)C)nc2nc(Nc3ccc(N4CCNCC4)cc3)ncc12 | melting point | 208 °C (dec.) |
| CC(C)(C)NC(=O)Nc1ccc2cnc(Nc3ccccc3)nc2n1 | melting point | 227 °C (dec.) |
| CN(C)CCNC(=O)Nc1ccc2cnc(Nc3ccc(F)cc3)nc2n1 | melting point | 251 to 255 °C |
| O=C(Nc1ccc2cnc(Nc3ccc(N4CCNCC4)cc3)nc2n1)N(CCO)CCO | melting point | 185 °C (dec.) |
| CN(C(=O)NC1CCCCC1)c1ccc2cnc(Nc3ccc(N4CCNCC4)cc3)nc2n1 | melting point | 169 to 175 °C |
| O=C(NCCCO)Nc1ccc2cnc(Nc3ccc(N4CCNCC4)cc3)nc2n1 | melting point | 183 °C (dec.) |
| CC(C)[C@H](CO)NC(=O)Nc1ccc2cnc(Nc3ccc(N4CCNCC4)cc3)nc2n1 | melting point | 200 °C (dec.) |
| O=C(Nc1ccc2cnc(Nc3ccc(N4CCNCC4)cc3)nc2n1)N1CCNCC1 | melting point | 220 °C (dec.) |

Record `CC(C)C[C@@H](CO)NC(=O)Nc1ccc2cnc(Nc3ccc(N4CCNCC4)cc3)nc2n1` , field melting point: 185 °C (dec.)

====

molecular target: cdk2/cyclinA (Homo sapiens, UniProt P24941); assay: Cyclin dependent kinase 2 assay (cdk2/cyclinA), 32P incorporation, filter plate; details: retinoblastoma substrate, 12 mM ATP, 25° C., 15 minutes; read-out: Inhibition of Cdks: IC50 Cdk2/A
endpoint name: IC50 (nM)
Provide only the numeric value, understood in nM.

Worked examples follow.
| substance smiles | unit descriptor | IC50 |
| --- | --- | --- |
| CC(C)(C)OC(=O)N1CCN(c2ccc(Nc3ncc4ccc(NC(=O)NC5CCCCC5)nc4n3)cc2)CC1 | nM | 92 |
| CC(C)[C@H](CO)NC(=O)Nc1ccc2cnc(Nc3ccc(N4CCNCC4)cc3)nc2n1 | nM | 43 |
| NCCNC(=O)Nc1ccc2cnc(Nc3ccc(F)cc3)nc2n1 | nM | 157 |
| O=C(Nc1ccc2cnc(Nc3ccc(N4CCNCC4)cc3)nc2n1)NC1CCCCC1 | nM | 10 |
| CC(C)NC(=O)Nc1ccc2cnc(Nc3ccc(N4CCNCC4)cc3)nc2n1 | nM | 113 |

Reported IC50 ( `C[C@@H]1CN(c2ccc(Nc3ncc4cc(F)c(NC(=O)NC(C)(C)C)nc4n3)cc2)C[C@H](C)N1` ) = 3590

====

The following molecules are shown together with reported IC50 values.
biological target: cdk2/cyclinE (Homo sapiens); test: Cyclin dependent kinase 2 assay (cdk2/cyclinE), 32P incorporation, filter plate; conditions: retinoblastoma substrate, 12 mM ATP, 25° C., 15 minutes; read-out: Inhibition of Cdks: IC50 Cdk2/E
Respond with the bare value in µM.

| molecule | study system | IC50 / µM |
| --- | --- | --- |
| O=C(NCCCN1CCOCC1)Nc1ccc2cnc(Nc3ccc(F)cc3)nc2n1 [Compound 96] | cdk2/cyclinE (Homo sapiens) | 1.55 |
| O=C(Nc1nc2nc(Nc3ccc(N4CCNCC4)cc3)ncc2cc1F)NC1CCCCC1 [Compound 11] | cdk2/cyclinE (Homo sapiens) | 0.125 |
| Cc1cc2cnc(Nc3ccc(N4CCNCC4)cc3)nc2nc1NC(=O)NC(C)(C)C [Compound 118] | cdk2/cyclinE (Homo sapiens) | 3.8 |

Consider O=C(NCCO)Nc1ccc2cnc(Nc3ccc(F)cc3)nc2n1 [Compound 97] . Its measured IC50 is 0.345

Lab note: O=C(Nc1ccc2cnc(Nc3ccc(N4CCNCC4)cc3)nc2n1)NC1CCCC1 [Compound 51] gave IC50 of 0.03

// IC50 lookup, molecule = C[C@@H]1CN(c2ccc(Nc3ncc4ccc(NC(=O)NC5CCCCC5)nc4n3)cc2)C[C@H](C)N1 [Compound 50] , result: 0.035

So, C[C@@H]1CN(c2ccc(Nc3ncc4cc(F)c(NC(=O)NC(C)(C)C)nc4n3)cc2)C[C@H](C)N1 [Compound 102] ? Its IC50 was 4.5

For this molecule ( CCN(C(=O)NC(C)(C)C)c1ccc2cnc(Nc3ccc(N4C[C@@H](C)N[C@@H](C)C4)cc3)nc2n1 [Compound 108] ), measured IC50 is 3.05

====

Entries and their log10(IC50) values follow.
biological target: cdk4/cyclinD (Homo sapiens, UniProt P11802); assay: Cyclin Dependent Kinase 4 (cdk-4) Assay, 32P incorporation, filter plate; conditions: retinoblastoma substrate, 25 μM ATP, 25° C., 15 minutes; read-out: Inhibition of Cdks: IC50 Cdk4D
Sequence (P11802 whole entry, species assumed): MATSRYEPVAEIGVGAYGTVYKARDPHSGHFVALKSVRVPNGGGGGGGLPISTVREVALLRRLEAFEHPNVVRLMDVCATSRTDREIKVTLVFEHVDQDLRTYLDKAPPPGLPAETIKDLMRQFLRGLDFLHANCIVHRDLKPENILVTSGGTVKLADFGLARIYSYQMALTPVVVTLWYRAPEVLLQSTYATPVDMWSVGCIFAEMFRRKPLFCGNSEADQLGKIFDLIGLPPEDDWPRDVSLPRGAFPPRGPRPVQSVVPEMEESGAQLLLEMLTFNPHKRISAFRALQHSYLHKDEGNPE
Sequence (P24385 whole entry partner, species assumed): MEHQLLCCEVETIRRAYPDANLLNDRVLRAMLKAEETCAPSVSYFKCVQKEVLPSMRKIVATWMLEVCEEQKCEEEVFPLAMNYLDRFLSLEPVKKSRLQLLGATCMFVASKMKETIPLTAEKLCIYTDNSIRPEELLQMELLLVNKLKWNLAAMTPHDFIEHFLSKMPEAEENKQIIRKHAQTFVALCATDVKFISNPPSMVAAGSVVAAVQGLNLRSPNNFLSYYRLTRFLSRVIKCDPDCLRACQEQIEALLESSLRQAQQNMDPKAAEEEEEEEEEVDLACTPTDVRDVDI
Note the log scale: values are log10 of IC50 expressed in nM.

Examples with their reported log10(IC50) follow.
| substance smiles | endpoint name | reading |
| --- | --- | --- |
| CCN(C(=O)NC(C)(C)C)c1ccc2cnc(Nc3ccc(N4C[C@@H](C)N[C@@H](C)C4)cc3)nc2n1 | log10(IC50) | 1.83 |
| Cc1cc2cnc(Nc3ccc(N4C[C@@H](C)N[C@@H](C)C4)cc3)nc2nc1NC(=O)NC(C)(C)C | log10(IC50) | 1.88 |
| CC(C)(C)NC(=O)Nc1nc2nc(Nc3ccc(N4CCNCC4)cc3)ncc2cc1Br | log10(IC50) | 1.85 |
| C[C@@H]1CN(c2ccc(Nc3ncc4ccc(NC(=O)NC5CCCCC5)nc4n3)cc2)C[C@H](C)N1 | log10(IC50) | 0.85 |
| C[C@@H]1CN(c2ccc(Nc3ncc4ccc(NC(=O)NC(C)(C)C)nc4n3)cc2)C[C@H](C)N1 | log10(IC50) | 1.70 |

Switching to the query record.
Measured log10(IC50) of `CC1(C)CN(c2ccc(Nc3ncc4cc(F)c(NC(=O)NC5CCCCC5)nc4n3)cc2)CCN1` : 1.54

====

biological target: cdk2/cyclinA (Homo sapiens, UniProt P24941); experiment: Cyclin dependent kinase 2 assay (cdk2/cyclinA), 32P incorporation, filter plate; details: retinoblastoma substrate, 12 mM ATP, 25° C., 15 minutes; read-out: Inhibition of Cdks: IC50 Cdk2/A
pIC50: −log10 of the molar value.
endpoint name: pIC50

Examples from the recorded data:
| compound | study system | pIC50 |
| --- | --- | --- |
| CC1(C)CN(c2ccc(Nc3ncc4cc(F)c(NC(=O)NC5CCCCC5)nc4n3)cc2)CCN1 [Compound 100] | cdk2/cyclinA (Homo sapiens, UniProt P24941) | 6.82 |
| O=C(Nc1nc2nc(Nc3ccc(N4CCNCC4)cc3)ncc2cc1Br)NC1CCCCC1 [Compound 55] | cdk2/cyclinA (Homo sapiens, UniProt P24941) | < 5.30 |
| CN(C(=O)Nc1ccc2cnc(Nc3ccc(N4CCNCC4)cc3)nc2n1)C1CCCCC1 [Compound 65] | cdk2/cyclinA (Homo sapiens, UniProt P24941) | < 5.30 |
| C[C@@H]1CN(c2ccc(Nc3ncc4ccc(NC(=O)NC(C)(C)C)nc4n3)cc2)C[C@H](C)N1 [Compound 49] | cdk2/cyclinA (Homo sapiens, UniProt P24941) | 6.28 |
| Cc1cc2cnc(Nc3ccc(N4C[C@@H](C)N[C@@H](C)C4)cc3)nc2nc1NC(=O)NC1CC1 [Compound 120] | cdk2/cyclinA (Homo sapiens, UniProt P24941) | < 5.30 |

The reported pIC50 value, cdk2/cyclinA (Homo sapiens, UniProt P24941), for O=C(Nc1ccc2cnc(Nc3ccc(N4CCNCC4)cc3)nc2n1)NC1CCCC1 [Compound 51] reads 7.62

Fill in: cdk2/cyclinA (Homo sapiens, UniProt P24941) pIC50 for CN(C)CCNC(=O)Nc1ccc2cnc(Nc3ccc(F)cc3)nc2n1 [Compound 99] = 5.99

The compound CCCN(CCC)C(=O)Nc1ccc2cnc(Nc3ccc(N4CCNCC4)cc3)nc2n1 [Compound 86] , when measured on cdk2/cyclinA (Homo sapiens, UniProt P24941), yielded pIC50 of < 5.30

Record Cc1cc(NC(=O)NC2CCCC2)nc2nc(Nc3ccc(N4CCNCC4)cc3)ncc12 [Compound 53] / cdk2/cyclinA (Homo sapiens, UniProt P24941), pIC50 recorded as < 5.30

The recorded pIC50 with cdk2/cyclinA (Homo sapiens, UniProt P24941) for CCc1cc2cnc(Nc3ccc(N4C[C@@H](C)N[C@@H](C)C4)cc3)nc2nc1NC(=O)NC(C)(C)C [Compound 121] was < 5.30

Form: item Cc1cc(Nc2ncc3ccc(NC(=O)Nc4ccc(Cl)cc4)nc3n2)ccc1F [Compound 47] ; test system cdk2/cyclinA (Homo sapiens, UniProt P24941); pIC50: < 5.30
